B1: HSP90AB1 (parent)
chain: EADKNDKAVKDLVVLLFETALLSS

variants of: B1; assay: protein stability index of a GFP-peptide fusion (GPS, HEK-293T) (PSI 1-6); higher = more stable; conditions: c terminus: a fixed tail appended;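 note: lentivirally expressed fusions sorted by FACS into six bins by GFP to DsRed ratio, PSI derived from sequencing read proportions per bin multiplied by bin number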
Use 2 as the dividing line for protein stability index, with the line itself on the y side and lower values as n.

L12D; y
V9E; y
L15D; y
D6T; n
K7G; y

Evaluate D6N : protein stability index at minimum 2?
n

Evaluate S23M : protein stability index at minimum 2?
y

Evaluate K10S : protein stability index at minimum 2?
n

Evaluate E1Q : protein stability index at minimum 2?
n

Evaluate S23W : protein stability index at minimum 2?
y

Evaluate L12E : protein stability index at minimum 2?
y

Evaluate L15K : protein stability index at minimum 2?
y
